These measurements were taken from patent US20260199365A1.

- Tgt: recombinant human truncated SHIP1 (tSHIP1) (Homo sapiens)
- Construct: tSHIP1 (SHIP1, residues 397-864) was amplified from pET24TEV-tSHIP1; His tag; made in house; host or cells: E. coli BL21
- Sequence (Q92835 397-864): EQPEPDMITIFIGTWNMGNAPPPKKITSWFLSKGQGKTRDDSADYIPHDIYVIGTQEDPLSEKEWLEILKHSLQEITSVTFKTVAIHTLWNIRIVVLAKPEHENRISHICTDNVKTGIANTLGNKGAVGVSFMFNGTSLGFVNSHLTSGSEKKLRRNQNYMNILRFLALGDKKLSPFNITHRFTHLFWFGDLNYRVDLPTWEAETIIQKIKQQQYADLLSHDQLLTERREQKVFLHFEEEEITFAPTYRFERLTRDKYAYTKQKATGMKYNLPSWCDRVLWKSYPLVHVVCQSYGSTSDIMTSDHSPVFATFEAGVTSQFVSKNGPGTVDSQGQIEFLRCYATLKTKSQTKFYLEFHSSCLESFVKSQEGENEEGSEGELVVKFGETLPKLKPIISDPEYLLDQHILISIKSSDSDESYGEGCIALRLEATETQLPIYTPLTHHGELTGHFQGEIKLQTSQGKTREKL
- Method summary: Malachite Green Phosphatase Release Assay (SHIP1 phosphatase activity)
- Type: biochemical
- Condition set: 250 μM analog; 100 μM PI(3,4,5)P3-diC8 substrate; normalized to vehicle control (DMSO) = 100%
Experimental readout: Phosphatase activity in the Malachite Green Assay, analog concentration 250 μM (%)
# output: bare number, implied unit %

Can you share its Phosphatase activity in the Malachite Green Assay, analog concentration 250 μM? I mean this molecule: Cc1sc(S(=O)(=O)N2CCSCC2)cc1NC(=O)CNS(=O)(=O)c1ccc(I)cc1
83

Also, Cc1sc(S(=O)(=O)N2CCSCC2)cc1NC(=O)CN please.
104

Entry to check: Cc1sc(S(=O)(=O)N2CCCC2)cc1NC(=O)CNS(=O)(=O)c1ccc(F)cc1
97

Also Cc1sc(S(=O)(=O)N2CCSCC2)cc1NC(=O)[C@@H](C)NS(=O)(=O)c1ccc(F)cc1 , if possible.
108
